target: Tumor necrosis factor (Homo sapiens, UniProt P01375); test: TNFa-triggered NF-kB activation inhibitors, SAR follow-up, cell-based, revised (AID 2337); type: functional
Sequence (P01375 whole entry): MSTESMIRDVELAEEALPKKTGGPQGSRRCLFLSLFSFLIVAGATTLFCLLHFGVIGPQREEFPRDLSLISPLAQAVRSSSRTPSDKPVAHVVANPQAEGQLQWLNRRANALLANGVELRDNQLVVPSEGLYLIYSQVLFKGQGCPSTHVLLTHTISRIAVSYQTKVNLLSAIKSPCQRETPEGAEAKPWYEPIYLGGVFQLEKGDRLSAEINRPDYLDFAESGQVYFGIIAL
Active and inactive are the calls of the source.
Field 'call' accepts 1 (yes) = active, 0 (no) = inactive

What call does the record list for O=C(c1ccc(Cn2c(=S)[nH]c3ccccc3c2=O)cc1)N1CCN(c2ccccn2)CC1 ?
1 (yes)

Query: recorded result category for CCCc1nc(SCC(=O)N2CCC(Cc3ccccc3)CC2)c2c(=O)n(C)c(=O)n(C)c2n1 in this test
1 (yes)

Please state the recorded outcome for this compound: CSc1ccc(NC(=O)c2ccc(CN3CCCCC3)cc2)cc1
1 (yes)

What outcome does the record of this test show for COC(=O)c1c(NC(=O)C(=O)N2CCCCC2)sc2c1CC(C)(C)OC2 ?
0 (no)

Which outcome did this test record for the compound O=C(Nc1ccc(Oc2cccnc2)nc1)c1ccc(C(F)(F)F)cc1 ?
1 (yes)

###

assay: cytotoxicity toward NIH3T3 fibroblasts, dose response, counter-screen, cell-based, ATP luminescence, mouse fibroblasts (AID 2010); assay type: functional;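 further: cells exposed to compound for about 90 hours before reading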
Active and inactive are the calls of the source.
result type: EC50

I am curious: what EC50 value has been reported for CC(C)(C)c1ccccc1OCCCCCn1ccnc1 ?
> 60 µM (not active)

I am curious: what EC50 value has been reported for Cc1nn(Cc2ccc(F)cc2)c(Cl)c1/C=N/NC(=O)c1ccccc1 ?
> 60 µM (not active)

Consider the molecule Oc1c(N=NC(S)=Nc2ccccc2F)c2ccccc2n1Cc1ccccc1Cl and give its measured EC50.
17.5 µM (active)

Name the recorded EC50 for CCCCn1c2ccc(F)cc2c2nnc(SCCN3CCCCC3)nc21 .
> 60 µM (not active)

Please give the measured EC50 for this molecule: Cn1c(N2CCOCC2)c(/C=N/OC(=O)c2ccc(F)cc2)c2ccccc21
1.98 µM (active)

What measured EC50 goes with Cc1cccc(-n2c(SCc3cc(=O)n4ccsc4n3)nc3ccccc32)c1 ?
> 60 µM (not active)

Entry O=C1CC(SC(=Nc2ccccc2)Nc2ccccc2)C(=O)N1c1ccc(Cl)c(Cl)c1 (configuration not stated) : reported EC50 = ?
> 60 µM (inconclusive)

###

molecular target: Nuclear receptor subfamily 0 group B member 1 (Homo sapiens, UniProt P51843); assay type: functional, cell-based;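 further: HEK293T cells transfected with SF-1 and DAX-1 plus StAR promoter luciferase reporter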
Sequence (P51843 whole entry): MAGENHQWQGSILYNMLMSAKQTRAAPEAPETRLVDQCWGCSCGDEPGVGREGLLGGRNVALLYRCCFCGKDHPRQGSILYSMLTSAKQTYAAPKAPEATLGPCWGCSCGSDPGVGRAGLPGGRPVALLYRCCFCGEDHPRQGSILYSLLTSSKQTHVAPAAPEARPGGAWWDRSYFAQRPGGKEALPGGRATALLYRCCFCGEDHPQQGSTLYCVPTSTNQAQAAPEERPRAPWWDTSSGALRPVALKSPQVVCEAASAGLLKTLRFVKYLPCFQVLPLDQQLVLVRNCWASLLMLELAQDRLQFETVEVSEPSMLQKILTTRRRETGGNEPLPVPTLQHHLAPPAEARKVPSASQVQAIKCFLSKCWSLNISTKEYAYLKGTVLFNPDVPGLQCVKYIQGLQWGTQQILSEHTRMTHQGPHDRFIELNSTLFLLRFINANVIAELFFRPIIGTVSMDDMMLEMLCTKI
The source made the active and inactive calls.
Would you kindly list IC50 for each of these molecules?

Provide the documented IC50 with Nuclear receptor subfamily 0 group B member 1 (Homo sapiens, UniProt P51843) as the system for O=C(/C=C\Nc1ccccn1)c1ccccc1
> 67.5 µM (inactive)

// fetch Nuclear receptor subfamily 0 group B member 1 (Homo sapiens, UniProt P51843) IC50 for CC[C@@H](C)[C@H](C(CC(=O)N1CCCC1[C@@H](OC)[C@H](C)C(=O)N[C@H](Cc1ccccc1)c1nccs1)OC)N(C)C(=O)[C@H](NC(=O)[C@@H](C(C)C)N(C)C)C(C)C (stereo not given in full)
> 67.5 µM (inactive)

Provide the documented IC50 with Nuclear receptor subfamily 0 group B member 1 (Homo sapiens, UniProt P51843) as the system for CCC1CS/C(=N\c2ccc(C)cc2)N1C(=O)CN1C(=O)NC2(CCCC2)C1=O (stereo not given)
> 67.6 µM (inactive)

Param readout = IC50; param system = Nuclear receptor subfamily 0 group B member 1 (Homo sapiens, UniProt P51843); param query = O=C(COC(=O)c1ccc(O)cc1O)c1ccc(Cl)cc1 ; response: value;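 further: HEK293T cells transfected with SF-1 and DAX-1 plus StAR promoter luciferase reporter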
> 67.5 µM (inactive)

Please state recorded IC50 (tested on Nuclear receptor subfamily 0 group B member 1 (Homo sapiens, UniProt P51843)) of CCc1cccc2c(C(=O)CN3C(=O)NC4(CCc5ccccc54)C3=O)c[nH]c12 (stereo not given);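 further: HEK293T cells transfected with SF-1 and DAX-1 plus StAR promoter luciferase reporter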
> 67.5 µM (inactive)
